target under test: T1, rhPSMA, extracellular part of human PSMA (residues 44-750) with its native N-terminus (human, UniProt Q04609 44-750, N-glycosylated (made in Schneider S2 insect cells))
T1 construct: range 44-750; No tag; also called wild-type rhPSMA; rhGCPII
T1 sequence (Q04609 44-750 limits assumed): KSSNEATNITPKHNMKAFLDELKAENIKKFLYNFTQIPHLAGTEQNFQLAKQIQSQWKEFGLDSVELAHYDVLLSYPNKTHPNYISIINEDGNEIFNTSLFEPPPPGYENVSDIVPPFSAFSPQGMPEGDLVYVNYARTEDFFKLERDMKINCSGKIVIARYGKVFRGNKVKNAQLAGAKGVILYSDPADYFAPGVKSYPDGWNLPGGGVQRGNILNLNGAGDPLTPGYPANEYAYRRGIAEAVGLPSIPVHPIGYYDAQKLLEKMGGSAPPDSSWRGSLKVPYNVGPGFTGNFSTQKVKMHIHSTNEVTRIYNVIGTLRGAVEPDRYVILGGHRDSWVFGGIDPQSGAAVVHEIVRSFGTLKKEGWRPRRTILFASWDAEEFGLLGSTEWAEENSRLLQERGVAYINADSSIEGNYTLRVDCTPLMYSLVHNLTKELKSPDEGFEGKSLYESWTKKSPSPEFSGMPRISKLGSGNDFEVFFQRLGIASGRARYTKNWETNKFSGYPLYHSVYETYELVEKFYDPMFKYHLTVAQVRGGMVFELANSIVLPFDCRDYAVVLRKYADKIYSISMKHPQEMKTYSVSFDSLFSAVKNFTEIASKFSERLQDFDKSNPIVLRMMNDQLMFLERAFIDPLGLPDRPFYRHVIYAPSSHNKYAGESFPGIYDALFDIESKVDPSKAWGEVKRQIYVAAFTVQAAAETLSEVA
procedure summary: SPR (BIAcore 2000), rhPSMA amine-coupled to CM5 chip, Anticalin as analyte
attribute measured: Kd (nM)
Field format: number, assumed nM, no unit text.

Anticalin A3A5 (designed binder, Differs from A3 by Val for Met at position 40; monomeric, 21 kDa; also called variant A3A5; not shown: C-terminal Strep-tag II) QDSTSDLIPAPPLSKVPLQQNFQDNQFHGKWYVVGLAGNVILREDKDPYKMSATIYELKEDKSYNVTNVRFYLKKCYYTIATFVPGSQPGEFTLGTIKSGPGKTSGLVRVVSTNYNQHAMVFFKEVQQNREWFIITLYGRTKELTSELKENFIRFSKSLGLPENHIVFPVPIDQCIDG	2.5
Anticalin A3 (designed binder, Lcn2-derived lipocalin variant, monomeric, made by periplasmic secretion in E. coli from pNGAL98 with a C-terminal Strep-tag II; also called variant A3; not shown: C-terminal Strep-tag II) QDSTSDLIPAPPLSKVPLQQNFQDNQFHGKWYVVGLAGNMILREDKDPYKMSATIYELKEDKSYNVTNVRFYLKKCYYTIATFVPGSQPGEFTLGTIKSGPGKTSGLVRVVSTNYNQHAMVFFKEVQQNREWFIITLYGRTKELTSELKENFIRFSKSLGLPENHIVFPVPIDQCIDG	4.8
Anticalin A3A5.1 (designed binder, Soluble form as in SPR; also called variant A3A5.1; not shown: C-terminal Strep-tag II) QDSTSDLIPAPPLSKVPLQQNFQDNQFHGKWYVVGLAGNVILREDKDPYKMSATIYELNEDKSYNVTNVRYYLKKCYYTIATFVPGSQPGEYTLGTIKSGPGDTSGLVRVVSTNYNQHAMVFFKEVQQNREWFIITLYGRTKELTSKLKENFIRFSKSLGLPENHIVFPVPIDQCIDG	0.66

INPUT: Field request: Kd | item: Anticalin A3A5.7 (designed binder, Soluble form as in SPR; also called variant A3A5.7; not shown: C-terminal Strep-tag II) QDSTSDLIPAPPLSKVPLQQNFQDNQFHGKWYVVGLAGNVILREDKDPYKMSATIYELKEDKSYNVTNVRFYLNKCYYTIATFVPGSRPGEFTLGTIKSGPGKTSGLVRVVSTNYSQHAMVFFKEVQQNREWFIITLYGRTKELTSKLKENFIRFSKSLGLPENHIVFPVPIDQCIDG
OUTPUT: 0.54
